- Tested on: HT-29
- procedureText: Antiproliferative activity against human HT-29 cells after 72 hrs by MTT assay
- Assay type: functional, cell-based
- conditionDescription: HT-29, 72 h
measurementName: IC50
State the value, then name its unit.

Result for COc1cc2c(Oc3ccc(NC(=O)NN4C(=O)CSC4c4c(F)cccc4F)c(Cl)c3)ccnc2cc1OCCCN1CCCC1 (configuration not stated) , tested on HT-29, IC50: 0.63 µM

The observed IC50 for COc1cc2c(Oc3ccc(NC(=O)NN4C(=O)CSC4c4c(F)cccc4F)c4ccccc34)ccnc2cc1OCCCN1CCCC1 (configuration not stated) when tested with HT-29 stands at 1.86 µM

IC50 value, target or system HT-29, for COc1cc2c(Oc3c(F)cc(NC(=O)NN4C(=O)CSC4c4c(F)cccc4F)cc3F)ccnc2cc1OCCN1CCC(N2CCCCC2)CC1 (configuration not stated) : 0.49 µM

# COc1cc2c(Oc3c(F)cc(NC(=O)NN4C(=O)CCSC4c4c(F)cccc4F)cc3F)ccnc2cc1OCCCN1CCCC1 (configuration not stated) with HT-29: IC50 is 0.27 µM

Value (IC50, HT-29) for record COc1cc2c(Oc3c(F)cc(NC(=O)NN4C(=O)CSC4c4c(F)cccc4F)cc3F)ccnc2cc1OCCCN1CCc2sccc2C1 (configuration not stated) = 1.41 µM

Considering COc1cc2c(Oc3c(F)cc(NC(=O)NN4C(=O)CSC4c4c(F)cccc4F)cc3F)ccnc2cc1OCCCN1CCN(C)CC1 (configuration not stated) , its IC50 with HT-29 was recorded as 0.15 µM

Simply: COc1cc2c(Oc3c(F)cc(NC(=O)NN4C(=O)C(C)(C)SC4c4c(F)cccc4F)cc3F)ccnc2cc1OCCCN1CCCC1 (configuration not stated) , HT-29, IC50 = 0.95 µM

All figures here come from ChEMBL document CHEMBL4330059.
